// reported Ratio of chromophore remaining relative to S340 for each item listed
test: Photostability: xenon arc weathering of chromophore solutions, LCMS analysis; format: physicochemical; conditions: 10 wt %; interpolated to 0.5 MJ/m^2 of energy exposure at 340 nm
measured parameter: Ratio of chromophore remaining relative to S340

{"compound": "CC(C)(C)c1ccc(-c2oc3cc(OCCN4C(=O)CCC4=O)c(OCCN4C(=O)CCC4=O)cc3c2C2=C(c3cc(-c4cc(C(C)(C)C)cs4)sc3-c3cc(C(C)(C)C)cs3)C(F)(F)C(F)(F)C2(F)F)cc1", "result": 1.05}
{"compound": "CCOC(=O)CCCOc1cc2oc(-c3ccc(C(C)(C)C)cc3)c(C3=C(c4cc(-c5ccc(C(C)(C)C)s5)sc4-c4sc(C(C)(C)C)cc4C)C(F)(F)C(F)(F)C3(F)F)c2cc1OCCCC(=O)OCC [Chromophore S383]", "result": 1.10}
{"compound": "COCCOc1cc2oc(-c3ccc(C(C)(C)C)cc3)c(C3=C(c4cc(-c5ccc(C(C)(C)C)s5)sc4-c4ccc(C(C)(C)C)s4)C(F)(F)C(F)(F)C3(F)F)c2cc1OCCOC [Chromophore S364]", "result": 0.88}

###

// reported PSS (SS) for each item listed
experiment: Photostationary state (PSS) and lambda max under simulated sunlight (solar simulator); type: physicochemical; conditions: absorbance at photostationary state, simulated sunlight (solar simulator); 2×10^−5 M solution
measured parameter: PSS (SS)

{"smi": "COc1cc2oc(-c3ccc(C(C)(C)C)cc3)c(C3=C(c4cc(-c5cc(C(C)(C)C)cs5)sc4-c4cc(C(C)(C)C)cs4)C(F)(F)C(F)(F)C3(F)F)c2cc1OC", "numeric result": 0.308}
{"smi": "CC(C)(C)c1ccc(-c2oc3cc(OCCN4C(=O)CCC4=O)c(OCCN4C(=O)CCC4=O)cc3c2C2=C(c3cc(-c4cc(C(C)(C)C)cs4)sc3-c3cc(C(C)(C)C)cs3)C(F)(F)C(F)(F)C2(F)F)cc1", "numeric result": 0.364}
{"smi": "CCOC(=O)CCCOc1cc2oc(-c3ccc(C(C)(C)C)cc3)c(C3=C(c4cc(-c5cc(C(C)(C)C)cs5)sc4-c4cc(C(C)(C)C)cs4)C(F)(F)C(F)(F)C3(F)F)c2cc1OCCCC(=O)OCC", "numeric result": 0.351}
{"smi": "CC(=O)Oc1cc2oc(-c3ccc(C(C)(C)C)cc3)c(C3=C(c4cc(-c5cc(C(C)(C)C)cs5)sc4-c4cc(C(C)(C)C)cs4)C(F)(F)C(F)(F)C3(F)F)c2cc1OC(C)=O", "numeric result": 0.278}
{"smi": "CCOC(=O)CCCOc1cc2oc(-c3ccc(C(C)(C)C)cc3)c(C3=C(c4cc(-c5cc6c(s5)C(C)(C)CCC6(C)C)sc4-c4cc5c(s4)C(C)(C)CCC5(C)C)C(F)(F)C(F)(F)C3(F)F)c2cc1OCCCC(=O)OCC", "numeric result": 0.409}
{"smi": "COCCCOc1cc2oc(-c3ccc(C(C)(C)C)cc3)c(C3=C(c4cc(-c5cc6c(s5)C(C)(C)CCC6(C)C)sc4-c4cc5c(s4)C(C)(C)CCC5(C)C)C(F)(F)C(F)(F)C3(F)F)c2cc1OCCCOC", "numeric result": 0.38}
{"smi": "COc1cc2oc(-c3ccc(C(C)(C)C)cc3)c(C3=C(c4cc(-c5cc6c(s5)C(C)(C)CCC6(C)C)sc4-c4cc5c(s4)C(C)(C)CCC5(C)C)C(F)(F)C(F)(F)C3(F)F)c2cc1OC", "numeric result": 0.358}
{"smi": "COc1cc2oc(-c3ccc(C(C)(C)C)cc3)c(C3=C(c4cc(-c5cc6c(s5)C(C)(C)CCCC6(C)C)sc4-c4cc5c(s4)C(C)(C)CCCC5(C)C)C(F)(F)C(F)(F)C3(F)F)c2cc1OC", "numeric result": 0.381}
{"smi": "COCCCOc1cc2oc(-c3ccc(C(C)(C)C)cc3)c(C3=C(c4cc(-c5cc(C(C)(C)C)cs5)sc4-c4cc(C(C)(C)C)cs4)C(F)(F)C(F)(F)C3(F)F)c2cc1OCCCOC", "numeric result": 0.319}
{"smi": "COc1cc2oc(-c3ccc(C(C)(C)C)cc3)c(C3=C(c4cc(-c5cc6c(s5)C(C)(C)CC6(C)C)sc4-c4cc5c(s4)C(C)(C)CC5(C)C)C(F)(F)C(F)(F)C3(F)F)c2cc1OC", "numeric result": 0.429}
